B1: Azoarcus group I ribozyme (parent)
chain: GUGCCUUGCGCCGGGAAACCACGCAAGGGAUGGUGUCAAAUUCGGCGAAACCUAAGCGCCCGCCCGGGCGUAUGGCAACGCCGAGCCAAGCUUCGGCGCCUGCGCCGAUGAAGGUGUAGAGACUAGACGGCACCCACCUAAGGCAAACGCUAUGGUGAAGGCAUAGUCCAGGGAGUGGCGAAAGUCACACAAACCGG

Variants of: B1
assay.remarks: reverse-splicing fitness (ratio to wild type); higher = more active; in vitro selection; Mg2+ level not given
observed.property: reverse-splicing fitness
Answer with a bare number; do not write a unit.

>  <variant.identifier>
C82G A111G A120G A145U C150A C169A U176A

>  <observed.value>
0.0175

$$$$
>  <variant.identifier>
C82U A111U A120U A145G C150G C169A U176A

>  <observed.value>
0.0098

$$$$
>  <variant.identifier>
C82U A111U A145C C150U C169U U176C

>  <observed.value>
0.0076

$$$$
>  <variant.identifier>
C82U A111U A145U C150G C169A U176G

>  <observed.value>
0.00684

$$$$

Request: I have this variant here, A120C C150U C169G U176G , and I need its recorded reverse-splicing fitness.
Result: 0.00427

Request: Quick one: A111U A145U C150A C169U
Result: 0.018

Request: Quick one: C82G A111U A120G A145G C150G C169A U176A
Result: 0.0133

Request: Quick one: C82G A111C A120C A145C C150U C169U U176A
Result: 0.0131

Measured values drawn from the RNAGym collection of RNA variant scans (doi:10.1093/molbev/msab373) for this set.
